Molecular target: CDK14/Cyclin Y (Homo sapiens, UniProt O94921)
Sequence (O94921 whole entry): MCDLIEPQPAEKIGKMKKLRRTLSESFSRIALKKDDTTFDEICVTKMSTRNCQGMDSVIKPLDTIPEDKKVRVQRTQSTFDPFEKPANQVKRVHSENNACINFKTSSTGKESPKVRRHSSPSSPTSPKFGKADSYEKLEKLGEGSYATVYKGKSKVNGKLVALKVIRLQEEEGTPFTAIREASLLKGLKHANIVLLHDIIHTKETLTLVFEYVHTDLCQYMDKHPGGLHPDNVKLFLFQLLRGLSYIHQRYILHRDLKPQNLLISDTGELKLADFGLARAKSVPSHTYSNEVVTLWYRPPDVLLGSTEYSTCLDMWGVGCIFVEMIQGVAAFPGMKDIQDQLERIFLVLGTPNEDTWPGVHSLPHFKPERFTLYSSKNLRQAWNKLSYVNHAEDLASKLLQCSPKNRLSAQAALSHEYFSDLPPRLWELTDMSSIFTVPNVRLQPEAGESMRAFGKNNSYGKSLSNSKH
Sequence (Q8ND76 whole entry partner): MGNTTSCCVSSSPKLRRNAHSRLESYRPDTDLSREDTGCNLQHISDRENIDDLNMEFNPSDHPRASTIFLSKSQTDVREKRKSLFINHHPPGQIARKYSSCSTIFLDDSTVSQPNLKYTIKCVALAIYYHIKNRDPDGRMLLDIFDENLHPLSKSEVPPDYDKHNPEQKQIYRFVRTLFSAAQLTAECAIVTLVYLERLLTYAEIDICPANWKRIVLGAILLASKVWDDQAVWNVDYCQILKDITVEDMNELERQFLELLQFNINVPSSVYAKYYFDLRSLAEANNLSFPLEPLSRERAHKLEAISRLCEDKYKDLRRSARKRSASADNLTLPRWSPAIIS
Assay: NanoBRET live-cell target engagement, CDK14-NanoLuc/Cyclin Y in HEK-293
Format: binding
Details: 10µM; average of experiments
Quantity measured: CDK14/Y Inhibition at 10µM (%)
State the answer as a number, implicitly in %.

Cc1c(Br)c(Br)c2c3c1nc(N1CCNCC1)n3CCC2.Cl [SEL 120-34A] : 26.1
O=C1NCCc2[nH]c(-c3ccncc3)cc21 : 13.9
O=C1NC(=NCc2cccs2)S/C1=C\c1ccc2ncccc2c1 : 0.0648

Please examine the following record next.
Requested field: CDK14/Y Inhibition at 10µM (%). Item: CN(C)C/C=C/C(=O)Nc1ccc(C(=O)Nc2cccc(Nc3ncc(Cl)c(-c4c[nH]c5ccccc45)n3)c2)cc1 33.1

Taken from paper PMC7265341.
